Taken from ChEMBL document CHEMBL5728731.

# Target Of Assay: Toll-like receptor 8 (Homo sapiens)
# Sequence (Q9NR97 whole entry): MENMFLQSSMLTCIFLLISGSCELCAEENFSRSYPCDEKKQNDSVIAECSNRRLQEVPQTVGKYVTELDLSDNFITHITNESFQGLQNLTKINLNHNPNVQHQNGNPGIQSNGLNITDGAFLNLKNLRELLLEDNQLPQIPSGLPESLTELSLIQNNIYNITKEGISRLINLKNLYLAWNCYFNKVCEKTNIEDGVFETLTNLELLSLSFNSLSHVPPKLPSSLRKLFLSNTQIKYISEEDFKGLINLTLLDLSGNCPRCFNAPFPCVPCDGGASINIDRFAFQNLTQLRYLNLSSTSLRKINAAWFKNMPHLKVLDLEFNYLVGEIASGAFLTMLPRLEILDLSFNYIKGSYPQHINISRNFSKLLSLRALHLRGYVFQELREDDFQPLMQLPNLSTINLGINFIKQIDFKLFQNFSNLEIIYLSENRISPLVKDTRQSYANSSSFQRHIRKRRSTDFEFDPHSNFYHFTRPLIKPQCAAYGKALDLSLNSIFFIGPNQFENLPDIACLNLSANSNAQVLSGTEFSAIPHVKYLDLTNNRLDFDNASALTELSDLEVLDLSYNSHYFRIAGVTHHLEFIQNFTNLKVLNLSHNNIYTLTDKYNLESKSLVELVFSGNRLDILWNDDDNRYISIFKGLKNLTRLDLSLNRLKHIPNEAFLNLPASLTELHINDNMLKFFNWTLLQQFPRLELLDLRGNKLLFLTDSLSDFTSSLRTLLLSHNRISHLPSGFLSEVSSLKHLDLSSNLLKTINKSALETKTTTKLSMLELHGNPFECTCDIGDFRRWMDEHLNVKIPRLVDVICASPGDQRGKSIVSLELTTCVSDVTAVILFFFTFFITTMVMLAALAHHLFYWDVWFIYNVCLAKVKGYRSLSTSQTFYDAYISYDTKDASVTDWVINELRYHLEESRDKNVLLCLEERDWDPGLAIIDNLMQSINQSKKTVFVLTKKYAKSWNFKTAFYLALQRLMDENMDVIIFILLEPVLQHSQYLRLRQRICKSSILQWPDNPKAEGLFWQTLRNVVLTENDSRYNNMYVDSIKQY
# Assay Procedure: n Vitro Biological Assays: Plasmacytoid dendritic cell (pDC)—enriched peripheral blood mononuclear cells (PBMCs) were prepared from the blood of a series of human donors (3-5 donors/experiment). PBMCs were isolated using Ficoll-Paque Premium® (GE Healthcare, Chicago Ill.) using methods well known to those in the art. pDCs were magnetically isolated from the total recovered PBMC population using CD304 (BDCA-4/Neuropilin-1) microbeads (Miltenyi Biotec, San Diego Calif.), according to the manufacturer's instructions. Isolated pDCs were then added back to between 1 and 2×108 of the corresponding donor's PBMCs for relative enrichment of this cell type. […] Culture supernatants were collected and interferon-alpha (IFNα) protein levels were measured by ELISA (MabTech, Cincinnati Ohio), according to the manufacturer's instructions.Monocytes were magnetically isolated from PBMCs, prepared as described above, following labeling with CD14 microbeads (Miltenyi Biotec, San Diego Calif.), according to the manufacturer's instructions. […] Culture supernatants were collected and tumor necrosis factor alpha (TNFα) protein levels were measured by ELISA (MabTech, Cincinnati Ohio), according to the manufacturer's instructions.
Recorded pEC50 for the following molecules
Note on pEC50: it is the negative log10 of concentration, concentration in mol/L.

Previously resolved entries follow.
INSERT INTO assay_data (input_smiles, target_of_assay, endpoint_result) VALUES
  ('CCCCCCCCCCCCCCCCCC(=O)NCc1ccc(Cn2c(CCCC)nc3c(N)nc4ccccc4c32)cc1', 'Toll-like receptor 8 (Homo sapiens)', 5.24),
  ('CCCCCCCCCCCCCCC(=O)NCc1ccc(Cn2c(CCCC)nc3c(N)nc4ccccc4c32)cc1', 'Toll-like receptor 8 (Homo sapiens)', 6.08);

Could you now consider this next molecule?
[ask] Tell me the measured pEC50 of CCCCCC(=O)NCc1ccc(Cn2c(CCCC)nc3c(N)nc4ccccc4c32)cc1 , please.
[reply] 5.67
